Molecular target: His-GlnR (Mycobacterium smegmatis mc2 155) (UniProt A0R4C4)
Sequence: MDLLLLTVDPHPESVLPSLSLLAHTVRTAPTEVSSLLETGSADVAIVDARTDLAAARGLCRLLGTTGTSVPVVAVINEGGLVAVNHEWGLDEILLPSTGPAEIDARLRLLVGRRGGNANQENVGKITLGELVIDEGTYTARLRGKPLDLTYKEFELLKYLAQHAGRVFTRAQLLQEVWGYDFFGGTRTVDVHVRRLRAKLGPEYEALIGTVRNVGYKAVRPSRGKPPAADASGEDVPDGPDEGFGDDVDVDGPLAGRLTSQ
Assay: EMSA
Settings: 10 mM Tris pH 7.5, 100 mM KCl (Fig. 3 legend; not in Methods), 1 mM DTT, 2.5% glycerol, 20 mM MgCl2, 500 ng poly(dI-dC), 0.05% NP-40; 30 nM DNA; 10 min room …

sequence-input | target-entity | binding
ATCTGCATCATCTCGCGACTTTGGTCAGCTGTCGCCCTGGCGCGCCGAGGCACGGCAGGTTTCGCACGCCCAGGCATCTCACAGCCGACGCTGAGCTGATGTGCGCAGATGGCAACACCGATGCATAGGTCAAGTCGCCGAACCGCAATCTGGGCGCGACACGGTCTAGGGAACTGTCCATCGGGTCCATCGGAAGGTTGCACCCAATG (double strand) [msmeg_5360 promoter] | His-GlnR (Mycobacterium smegmatis mc2 155) (UniProt A0R4C4) | no binding
GACCCCTGGTGACCGCGTAACGGCTTTCTCACAGGTGCCCGCCGATCCAGGTGAGCGGAATTTCACGGCCGGGTCATCGCGCGCAGTGTCGGGGCAATAATCGCTTTCTAGCGTGCTCGCATG (double strand) [msmeg_0433 promoter] | His-GlnR (Mycobacterium smegmatis mc2 155) (UniProt A0R4C4) | binds more weakly
GCAGCTTGGACCACCTATTTCCACGCCATGAACGACCTCGCCCGAAAATTGATGAGCGCGTTCGCCCTCGGGTTGAGGTTGCCCGCCGACTACTTCGTCGACACCATCGA (double strand) [msmeg_4008 promoter] | His-GlnR (Mycobacterium smegmatis mc2 155) (UniProt A0R4C4) | no binding
CGTGTGGCCCTTTCGTTCGATCCCGAGCACAGAGATTAACTGTACTGACCACGCAAGGCGAGACGTCGGCACTCGTGACGTCCTCACACGGTTTTCACAACGCACTCACAAGACATGTGAGCAGCACGTAGCGGACCCGGTACGCCTGGGCAATGGTGCGGCAACGGGGTTCTCCGACGCTGAACGCATG (double strand) [msmeg_5765 promoter] | His-GlnR (Mycobacterium smegmatis mc2 155) (UniProt A0R4C4) | binds more weakly

###

Target: MBP-NnaR (Mycobacterium smegmatis mc2 155)
Sequence: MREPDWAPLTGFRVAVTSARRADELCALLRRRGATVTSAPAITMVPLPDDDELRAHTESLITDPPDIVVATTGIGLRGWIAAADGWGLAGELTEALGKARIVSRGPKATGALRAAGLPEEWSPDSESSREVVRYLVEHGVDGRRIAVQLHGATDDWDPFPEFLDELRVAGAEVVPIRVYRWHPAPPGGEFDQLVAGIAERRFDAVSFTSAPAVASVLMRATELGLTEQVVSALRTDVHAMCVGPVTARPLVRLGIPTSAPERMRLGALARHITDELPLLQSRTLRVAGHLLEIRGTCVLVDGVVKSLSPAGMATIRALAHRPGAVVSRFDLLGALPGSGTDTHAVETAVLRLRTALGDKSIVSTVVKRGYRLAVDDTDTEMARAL
Assay: EMSA
Conditions: 10 mM Tris pH 7.5, 100 mM KCl (Fig. 3 legend; not in Methods), 1 mM DTT, 2.5% glycerol, 20 mM MgCl2, 500 ng poly(dI-dC), 0.05% NP-40; 30 nM DNA; 10 min room …

sequence-input | target-entity | binding
CGTGTGGCCCTTTCGTTCGATCCCGAGCACAGAGATTAACTGTACTGACCACGCAAGGCGAGACGTCGGCACTCGTGACGTCCTCACACGGTTTTCACAACGCACTCACAAGACATGTGAGCAGCACGTAGCGGACCCGGTACGCCTGGGCAATGGTGCGGCAACGGGGTTCTCCGACGCTGAACGCATG (double strand) [msmeg_5765 promoter] | MBP-NnaR (Mycobacterium smegmatis mc2 155) | binds
GACCCCTGGTGACCGCGTAACGGCTTTCTCACAGGTGCCCGCCGATCCAGGTGAGCGGAATTTCACGGCCGGGTCATCGCGCGCAGTGTCGGGGCAATAATCGCTTTCTAGCGTGCTCGCATG (double strand) [msmeg_0433 promoter] | MBP-NnaR (Mycobacterium smegmatis mc2 155) | binds
ATCTGCATCATCTCGCGACTTTGGTCAGCTGTCGCCCTGGCGCGCCGAGGCACGGCAGGTTTCGCACGCCCAGGCATCTCACAGCCGACGCTGAGCTGATGTGCGCAGATGGCAACACCGATGCATAGGTCAAGTCGCCGAACCGCAATCTGGGCGCGACACGGTCTAGGGAACTGTCCATCGGGTCCATCGGAAGGTTGCACCCAATG (double strand) [msmeg_5360 promoter] | MBP-NnaR (Mycobacterium smegmatis mc2 155) | no binding
GCAGCTTGGACCACCTATTTCCACGCCATGAACGACCTCGCCCGAAAATTGATGAGCGCGTTCGCCCTCGGGTTGAGGTTGCCCGCCGACTACTTCGTCGACACCATCGA (double strand) [msmeg_4008 promoter] | MBP-NnaR (Mycobacterium smegmatis mc2 155) | no binding
CATAGGGCGAGGCTAAGAACCCGATATTGCCGCGATGTCGCGCTGTGTGAAGCCCCCATCACGGTGTGCTCACGTCTTCGGCAACGCACATGTGAGGTCCCCGACCGGTGAGCTCTCCGGACCACAGTCAGGCCACAACCGCC (double strand) [msmeg_0427 promoter] | MBP-NnaR (Mycobacterium smegmatis mc2 155) | binds

Data provenance: paper PMC6277429
